The reader will find reported self-cleavage values listed item by item below.
B1: Hairpin Ribozyme (parent)
chain: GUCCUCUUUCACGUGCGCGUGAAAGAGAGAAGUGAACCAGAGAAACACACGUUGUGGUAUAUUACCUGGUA

# Variants of: B1
# experimentSummary: self-cleavage, relative activity (ratio to wild type); higher = more cleavage; co-transcriptional

These recorded examples may help you get a feel for the data.
residueString	self-cleavage
GUCCUCUUUCACGUGCGCGUGAAAGAGAGAAGUGAACCAGAGAAACACACGUUGUGGUAUAGUUCCUGGUA [U62G A64U]	0.0808
GUCCUCUUUCACGGGCGCGUGAAAGAGAGAAGUGAACCAGAGAAACACACGCUGUGGUAUAUUACCUGGUA [U14G U52C]	0.966
GUCCUCUUUCACGUGCGCUUGAAAGAGAGAAGUGAACCAGAGAAACACACGUUGUGCUAUAUUACCUGGUA [G19U G57C]	0.105
GUCCUCUUUCAAGUCCGCGUGAAAGAGAGAAGUGAACCAGAGAAACACACGUUGUGGUAUAUUACCUGGUA [C12A G15C]	0.837

Task item: Tell us which self-cleavage value is on record for GUCCUCUUUCACGUGCGCGUGAAAGAGAGAAGUGUACCAGAGAAACACACGUUGUGGUAUUUUACCUGGUA [A35U A61U]
Reply: 0.0854

Task item: Tell us which self-cleavage value is on record for GUCCUCUUUCACGUGCGCGUGAAAGAGCGAAGUGAACCAGAGAAACACACGUUGUGGUAUAUUCCCUGGUA [A28C A64C]
Reply: 0.245

Task item: Tell us which self-cleavage value is on record for GUCCUCUUCCACGUGCGCGUGAAAGAGAGAAGUGAACCAGAGAAACACACGUUGUGUUAUAUUACCUGGUA [U9C G57U]
Reply: 0.185

Task item: Tell us which self-cleavage value is on record for GUCCUCUUUCACGUGCACGUGAAAGAGAGAAGUUAACCAGAGAAACACACGUUGUGGUAUAUUACCUGGUA [G17A G34U]
Reply: 0.967

Task item: Tell us which self-cleavage value is on record for GUCCUCUUUCACGUGCGCGUGAAAGAGAGAAGUGAACCAGAGAAACACACGGUGUGGCAUAUUACCUGGUA [U52G U58C]
Reply: 0.707

Task item: Tell us which self-cleavage value is on record for GUCUUCUUUCACGUGCGCGUGAAUGAGAGAAGUGAACCAGAGAAACACACGUUGUGGUAUAUUACCUGGUA [C4U A24U]
Reply: 0.295

Task item: Tell us which self-cleavage value is on record for GUCCUCUUUCACGUGCGCGUGAAAGAGAGAAGUGAACCCGAGAAACACACGUUGUGGUAUAUUACGUGGUA [A39C C66G]
Reply: 0.0809

Task item: Tell us which self-cleavage value is on record for GUCCUCUUUCACGUGCGCGUGAAACAGAGAAGUGAACCAGAGAAACACACGUUGUGAUAUAUUACCUGGUA [G25C G57A]
Reply: 0.176
